# Experimental System: T1, human protein C (human, UniProt P04070 43-461)
# T1 construct: Zymogen form, coated on ELISA plates; also called hPC; PC
# Assay Notes: ELISA, plate coated with hPC 1 ug/mL, anti-hIgG-Fc-HRP
Recorded Endpoint: Span
API doc: respond with a numeric literal and nothing else, no unit.

// recorded Span for HAPC-14-4 (antibody, V domains shown, Whole IgG, backbone hIgG1; also called HPAC 14-4) VH: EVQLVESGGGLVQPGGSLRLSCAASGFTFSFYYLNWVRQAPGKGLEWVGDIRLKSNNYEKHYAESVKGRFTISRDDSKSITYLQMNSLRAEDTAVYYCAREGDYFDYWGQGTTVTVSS VL: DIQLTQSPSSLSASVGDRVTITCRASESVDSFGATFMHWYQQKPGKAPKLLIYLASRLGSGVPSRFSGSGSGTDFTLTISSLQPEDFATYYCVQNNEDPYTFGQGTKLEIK : 0.157
